Measured values drawn from ChEMBL document CHEMBL4033707 for this set.

// reported IC50 per item
# Experimental Target: Phosphatidylinositol 4,5-bisphosphate 3-kinase catalytic subunit alpha isoform (Homo sapiens, UniProt P42336)
# Sequence (P42336 whole entry, canonical isoform): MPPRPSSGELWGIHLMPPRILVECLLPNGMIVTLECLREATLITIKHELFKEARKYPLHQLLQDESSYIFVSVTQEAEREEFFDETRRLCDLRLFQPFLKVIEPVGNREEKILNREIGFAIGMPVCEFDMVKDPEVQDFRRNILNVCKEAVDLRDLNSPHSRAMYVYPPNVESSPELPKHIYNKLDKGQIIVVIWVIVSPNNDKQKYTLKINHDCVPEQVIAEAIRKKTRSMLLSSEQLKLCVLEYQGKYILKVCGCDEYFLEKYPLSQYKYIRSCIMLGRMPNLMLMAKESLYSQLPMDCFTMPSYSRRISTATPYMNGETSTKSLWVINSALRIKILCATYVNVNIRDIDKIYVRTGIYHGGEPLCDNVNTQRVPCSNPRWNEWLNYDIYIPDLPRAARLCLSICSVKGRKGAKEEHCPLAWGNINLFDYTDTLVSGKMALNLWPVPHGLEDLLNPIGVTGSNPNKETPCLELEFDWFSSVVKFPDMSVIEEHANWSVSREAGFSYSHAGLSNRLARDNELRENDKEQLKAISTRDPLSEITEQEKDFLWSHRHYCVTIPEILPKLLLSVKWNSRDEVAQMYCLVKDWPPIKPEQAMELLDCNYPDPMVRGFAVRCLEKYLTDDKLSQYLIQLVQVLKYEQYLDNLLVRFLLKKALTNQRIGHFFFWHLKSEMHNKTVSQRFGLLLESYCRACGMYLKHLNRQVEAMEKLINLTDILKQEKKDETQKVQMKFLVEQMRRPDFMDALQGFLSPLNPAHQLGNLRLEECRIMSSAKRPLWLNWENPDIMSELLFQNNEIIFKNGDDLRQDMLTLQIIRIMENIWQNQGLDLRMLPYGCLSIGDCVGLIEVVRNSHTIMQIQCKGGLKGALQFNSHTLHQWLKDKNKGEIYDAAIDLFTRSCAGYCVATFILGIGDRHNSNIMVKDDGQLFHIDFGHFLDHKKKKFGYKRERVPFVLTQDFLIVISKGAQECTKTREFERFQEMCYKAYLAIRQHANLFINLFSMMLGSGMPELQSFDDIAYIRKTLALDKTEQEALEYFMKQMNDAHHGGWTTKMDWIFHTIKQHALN
# Assay Remarks: Inhibition of PI3Kalpha (unknown origin)
Reported Property: IC50 (nM)

# Smiles String, Unit Abbrev, Value Comparator, Experimental Result
records = [
    ("CNC(=O)c1nc(-c2nc(-c3cnc4ccccn34)c(C)nc2N)n(C)n1", "nM", "=", 6),
    ("CNC(=O)c1nc(-c2nc(-c3cnn4ccccc34)c(C)nc2N)n(C)n1", "nM", "<", 10),
    ("Cc1nc(N)c(-c2nc(C3CCN(C)CC3)nn2C)nc1-c1cnc2ccccn12", "nM", "=", 5),
    ("CNC(=O)c1nc(-c2nc(-c3cnc4ccccn34)cnc2N)n(C)n1", "nM", "=", 20),
    ("Cc1nc(N)c(-c2cnn(C3CCN(C)CC3)n2)nc1-c1cnc2ccccn12", "nM", "=", 8),
]
